{"structure smiles": "COc1cccc(N)c1", "logP": 1.11}
{"structure smiles": "Cc1cccc(C)c1O", "logP": 2.38}
{"structure smiles": "COc1cccc(O)c1", "logP": 1.52}
{"structure smiles": "Nc1ccccc1[N+](=O)[O-]", "logP": 1.62}

###

Test: method code SF-GLC, from DOI: 10.1007/bf00224496
reported property: logP

{"compound": "C=C1C2CCC(C2)C1(C)C (stereo not drawn)", "reported property": "logP", "reported value": 4.56}
{"compound": "C=C1CCC2(C(C)C)CC12 (stereo not drawn)", "reported property": "logP", "reported value": 4.63}
{"compound": "CC1(C)C2CC3C(C2)C31C", "reported property": "logP", "reported value": 4.85}

###

Listed next: entries and their corresponding logD.
Assay: method code SF-HPLC, from DOI: 10.1002/jat.2550130210, PMID: 8486911
Conditions: pH 13.0

{"structure smiles": "C=CCNCC=C", "logD": 1.08}
{"structure smiles": "CC(C)CNCC(C)C", "logD": 2.67}

###

Assay: method code SF-AS, from DOI: 10.1002/ps.2780110406
Reported logP values for a set of compounds

{"compound": "CCOP(=S)(OCC)Oc1cccc(F)n1", "logP": 3.51}
{"compound": "Clc1cc(Cl)c(Cl)c(Cl)c1", "logP": 4.68}
{"compound": "CCOP(=O)(NC(C)C)Oc1ccc(SC)c(C)c1 (stereo not drawn)", "logP": 3.18}

###

Experiment: method code SF-AS, from DOI: 10.1016/0014-2999(72)90235-x, PMID: 4113999

{"structure smiles": "OCCN1CCN(CC/C=C2/c3ccccc3Sc3ccc(C(F)(F)F)cc32)CC1", "logP": 3.83}

###

Experiment: method code SF-RC, from DOI: 10.1007/s00259-007-0645-5, PMID: 18057934
Conditions: pH 7.4

{"structure smiles": "CCN(CC)C(=O)Cc1c(-c2ccc(I)cc2)nc2ccc(Cl)cn12", "logD": 3.1}

###

Assay: method code SF, from DOI: 10.1016/0378-5173(86)90155-9
Settings: pH 7.0

{"molecule": "O=C(NCc1ccc(O)cc1)c1ccccc1", "logD": 1.87}
{"molecule": "CS(=O)CCCOc1ccc([N+](=O)[O-])cc1 (configuration not stated)", "logD": 0.93}

###

Assay: method code SF-AS, from DOI: 10.1007/bf01964075
Details: pH 2.1

{"compound": "CNC(=O)C1CCCN1C(C)=O (stereo not given)", "logD": -1.19}
{"compound": "Oc1cccc(O)c1", "logD": 0.83}
{"compound": "CC[C@H](C)[C@H](NC(C)=O)C(=O)NC", "logD": 0.14}
{"compound": "CNC(=O)[C@H](Cc1ccc(O)cc1)NC(C)=O", "logD": -0.32}
{"compound": "CNC(=O)[C@@H](NC(C)=O)C(C)C", "logD": -0.35}

###

The following molecules are listed with their measured logP values.

{"molecule": "CC(=O)N(CCO)c1c(I)c(C(=O)NC(CO)CO)c(I)c(C(=O)NC(CO)CO)c1I", "logP": -2.49}
{"molecule": "CC(=O)N(CC(O)CO)c1c(I)c(C(=O)NCC(O)CO)c(I)c(C(=O)NCC(O)CO)c1I (stereo not drawn)", "logP": -3.08}
{"molecule": "CC(=O)N(C[C@@H](O)CO)c1c(I)c(C(=O)NC(CO)CO)c(I)c(N(C(C)=O)[C@@H](O)CO)c1I", "logP": -2.64}

###

reported property: logP

{"structure smiles": "CCCCCC(C)=O", "reported value": 2.08}
{"structure smiles": "CCCOC(C)=O", "reported value": 1.11}

###

Assay: method code SF-AS, from DOI: 10.1021/bi00730a008, PMID: 4688860
Entries and their logP
reported property: logP

{"structure smiles": "COc1ccc(NC=O)cc1", "reported property": "logP", "reported value": 1.03}
{"structure smiles": "O=CNc1ccc([N+](=O)[O-])cc1", "reported property": "logP", "reported value": 1.43}
{"structure smiles": "COc1cccc(NC=O)c1", "reported property": "logP", "reported value": 1.25}
{"structure smiles": "Cc1ccc(NC=O)cc1", "reported property": "logP", "reported value": 1.61}

###

Assay: method code SF-HPLC, from DOI: 10.1002/jps.2600841008, PMID: 8801331
Conditions: pH 7.4

{"structure smiles": "Oc1cccc2ncccc12", "logD": 2.13}

###

Experiment: method code SF, from PMID: 8999431
Details: pH 7.4

{"compound": "CCn1cc(C(=O)NC(CC(C)C)C(=O)OC)c(=O)c2ccc(C)nc21 (stereo not drawn)", "logD": 3.15}
{"compound": "CCn1cc(C(=O)NC(C)C(=O)OC)c(=O)c2ccc(C)nc21 (stereo not drawn)", "logD": 2.47}
{"compound": "CCOC(=O)CNC(=O)c1cn(CC)c2nc(C)ccc2c1=O", "logD": 2.07}

###

Experiment: method code SF-HPLC, from DOI: 10.1161/01.res.55.4.513, PMID: 6478555
reported property: logP

{"structure smiles": "Cc1cccc(C)c1NC(=O)CN", "reported value": 0.41}
{"structure smiles": "CCNCC(=O)Nc1c(C)cccc1C", "reported value": 1.32}

###

The entries below are paired with their reported logP.

{"compound": "CC1(C)S[C@@H]2[C@H](NC(=O)C(C(=O)Oc3ccccc3)c3ccccc3)C(=O)N2[C@H]1C(=O)O (stereo partly drawn)", "logP": 3.14}
{"compound": "CC1(C)S[C@@H]2[C@H](NC(=O)[C@@H](c3ccccc3)S(=O)(=O)O)C(=O)N2[C@H]1C(=O)O", "logP": 0.59}
{"compound": "Cc1onc(-c2c(F)cccc2Cl)c1C(=O)N[C@@H]1C(=O)N2[C@@H]1SC(C)(C)[C@@H]2C(=O)O", "logP": 2.58}

###

Assay: method code SF-AS, from DOI: 10.1248/cpb.39.458, PMID: 1829027
Settings: pH 7.0
reported property: logD

{"compound": "CC(=O)OCC1OC(n2cc(F)c(=O)[nH]c2=O)CC1OC(C)=O (centres undefined)", "reported property": "logD", "reported value": -0.34}
{"compound": "CCCCCC(=O)OCC1OC(n2cc(F)c(=O)[nH]c2=O)CC1OC(=O)CCCCC (centres undefined)", "reported property": "logD", "reported value": 4.25}
{"compound": "CCCCCCCC(=O)OCC1OC(n2cc(F)c(=O)[nH]c2=O)CC1OC(=O)CCCCCCC (centres undefined)", "reported property": "logD", "reported value": 6.05}
{"compound": "CCCCC(=O)OC[C@H]1O[C@@H](n2cc(F)c(=O)[nH]c2=O)C[C@@H]1OC(=O)CCCC", "reported property": "logD", "reported value": 2.72}

###

Test: from Medić-Šarić, M; Mornar, A.; Badovinac-Črnjević, T; Jasprica, I. (2004). Experimental and calculation procedures for molecular lipophilicity: A comparative study for …
Settings: pH 7.4

{"structure smiles": "COc1ccccc1C(c1cc2ccccc2oc1=O)c1cc2ccccc2oc1=O", "logD": 2.5}

###

Experiment: method code SF-AS, from Brown, J.; Yu, N.; Cory, M.; Bicknell, R.; Taylor, D. (1978). In vivo evaluation of the radiosensitizing and cytotoxic properties of newly synthesized electron-affinic drugs. 3, 206-211.
reported property: logP

{"compound": "CC(=O)OCC(Cn1ccnc1[N+](=O)[O-])OC(C)=O (stereo unspecified)", "reported property": "logP", "reported value": -0.05}

###

Experiment: method code SF-CR+AS, from Korenman, I.; Tishchenko, M.; Kombarova, A. (1977). Distribution of dihydroxynaphthalenes between higher alcohols and water. Zh. Prikl. Khim., 50(4)899-901.
Conditions: pH 2.0

{"structure smiles": "Oc1cc(O)c2ccccc2c1", "logD": 1.97}

###

Assay: method code SF-AS, from DOI: 10.1016/0378-5173(93)90388-v

{"compound": "CC1CCC(=O)N1 (stereo unspecified)", "logP": -0.1}

###

reported property: logP

{"compound": "CCCCC1C(=O)NC(=O)N(C)C1=O (stereo unspecified)", "reported property": "logP", "reported value": 1.1}

###

Assay: method code SF-HPLC, from PMID: 1293941
Measured logP values are reported for all entries that follow.

{"structure smiles": "CCCOC(=O)c1ccc(N)cc1", "logP": 2.43}
{"structure smiles": "CCCCCCCCOC(=O)c1ccc(N)cc1", "logP": 5.02}
{"structure smiles": "CCCCCCOC(=O)c1ccc(N)cc1", "logP": 3.95}
{"structure smiles": "CCCCCOC(=O)c1ccc(N)cc1", "logP": 3.48}
{"structure smiles": "CCCCCCCOC(=O)c1ccc(N)cc1", "logP": 4.5}

// provenance: the SangsterLogP compilation
